- assayText: Metabolic stability in human and animal liver microsomes, stated across species
- Format: in vitro ADME, dog, rat, mouse
- conditionSet: human
propertyMeasured: half-life

INSERT INTO assay_data (molecule, measuredresult) VALUES
  ('C[C@]12CC[C@H]3[C@@H](CCC4=CC(=O)CC[C@@]43C)[C@@H]1CC[C@@H]2O [testosterone, reference compound]', '10 to 32 min');
